# TESTED_ON: recombinant human integrin αvβ6 (Homo sapiens (Human), UniProt P06756+P18564)
# Sequence (P06756 31-889): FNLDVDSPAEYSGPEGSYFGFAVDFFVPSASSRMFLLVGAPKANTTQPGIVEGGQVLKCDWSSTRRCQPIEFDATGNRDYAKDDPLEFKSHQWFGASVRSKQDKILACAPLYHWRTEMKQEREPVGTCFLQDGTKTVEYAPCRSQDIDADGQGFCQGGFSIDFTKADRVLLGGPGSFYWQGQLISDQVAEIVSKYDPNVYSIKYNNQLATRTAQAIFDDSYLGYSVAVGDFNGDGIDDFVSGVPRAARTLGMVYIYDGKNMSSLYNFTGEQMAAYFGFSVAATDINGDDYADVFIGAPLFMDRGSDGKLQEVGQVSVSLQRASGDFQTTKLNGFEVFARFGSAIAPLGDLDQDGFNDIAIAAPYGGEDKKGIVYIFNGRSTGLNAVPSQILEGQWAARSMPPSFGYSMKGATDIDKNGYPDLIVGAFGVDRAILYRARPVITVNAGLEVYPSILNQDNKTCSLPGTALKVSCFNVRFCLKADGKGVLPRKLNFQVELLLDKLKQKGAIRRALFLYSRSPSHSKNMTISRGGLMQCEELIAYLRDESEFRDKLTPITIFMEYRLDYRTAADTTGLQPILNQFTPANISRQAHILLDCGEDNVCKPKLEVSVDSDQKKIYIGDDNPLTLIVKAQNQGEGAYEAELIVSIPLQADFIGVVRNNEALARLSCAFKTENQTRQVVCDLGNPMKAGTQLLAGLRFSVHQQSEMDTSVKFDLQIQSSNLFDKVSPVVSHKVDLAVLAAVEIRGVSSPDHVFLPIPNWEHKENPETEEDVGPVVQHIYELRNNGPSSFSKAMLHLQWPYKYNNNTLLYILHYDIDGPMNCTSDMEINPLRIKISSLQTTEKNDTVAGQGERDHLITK
# Sequence (P06756 890-992 partner): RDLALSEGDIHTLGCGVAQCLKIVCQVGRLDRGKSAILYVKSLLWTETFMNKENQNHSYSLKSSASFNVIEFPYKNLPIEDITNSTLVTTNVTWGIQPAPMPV
# Sequence (P18564 22-707): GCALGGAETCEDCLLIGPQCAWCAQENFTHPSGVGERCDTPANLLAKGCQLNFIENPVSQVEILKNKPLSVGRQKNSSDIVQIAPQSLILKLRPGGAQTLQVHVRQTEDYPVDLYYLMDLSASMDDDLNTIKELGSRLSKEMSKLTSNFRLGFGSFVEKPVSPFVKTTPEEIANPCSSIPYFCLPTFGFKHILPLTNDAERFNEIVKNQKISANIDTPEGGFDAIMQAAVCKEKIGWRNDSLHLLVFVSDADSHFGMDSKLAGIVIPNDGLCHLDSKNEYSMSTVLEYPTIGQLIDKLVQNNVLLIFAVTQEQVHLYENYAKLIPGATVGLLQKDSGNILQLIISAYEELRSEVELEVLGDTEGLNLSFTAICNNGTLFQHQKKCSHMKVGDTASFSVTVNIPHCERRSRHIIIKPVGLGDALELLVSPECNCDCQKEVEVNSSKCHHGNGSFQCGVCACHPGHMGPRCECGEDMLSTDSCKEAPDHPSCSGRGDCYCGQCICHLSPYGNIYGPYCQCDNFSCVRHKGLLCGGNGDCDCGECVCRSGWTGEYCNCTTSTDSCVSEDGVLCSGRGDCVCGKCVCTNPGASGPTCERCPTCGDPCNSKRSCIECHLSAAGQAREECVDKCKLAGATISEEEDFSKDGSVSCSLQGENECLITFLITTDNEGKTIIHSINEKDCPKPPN
# PROCEDURE_SUMMARY: Solid phase integrin αvβ6 binding assay
# RUN_PARAMETERS: IC50 presented in four ranges; read-out: αvβ6 Inhibition IC50 (nM) - range
ENDPOINT_NAME: IC50

| COMPOUND | REPORTED_MEASUREMENT |
| --- | --- |
| COCCN(CCCCc1ccc2c(n1)NCCC2)CC[C@H](Nc1nccnc1C#N)C(=O)O | < 50 nM |
| O=C(O)[C@H](CCN(CCCCc1ccc2c(n1)NCCC2)C1CC1)Nc1ncnc2ccccc12 | 50 to 250 nM |
| Cn1ncc2c(N[C@@H](CCN(CCCCc3ccc4c(n3)NCCC4)CCC(F)F)C(=O)O)ncnc21 | 50 to 250 nM |
| COCCN(CCCCc1ccc2c(n1)NCCC2)CCC(Nc1ncnc2ncccc12)C(=O)O (stereo not drawn) | < 50 nM |
| O=C(O)[C@H](CCN(CCCCc1ccc2c(n1)NCCC2)CCOc1cncc(F)c1)Nc1ncnc2cccnc12 | < 50 nM |
| COCCN(CCCCc1ccc2c(n1)NCCC2)CC[C@H](Nc1cc(-n2cccn2)ncn1)C(=O)O | < 50 nM |
| Cc1nc(N[C@@H](CCN(CCCCc2ccc3c(n2)NCCC3)CC2CC(F)(F)C2)C(=O)O)c2ccc(F)cc2n1 | < 50 nM |
| O=C(O)[C@H](CCN(CCCCc1ccc2c(n1)NCCC2)CCC(F)F)Nc1ccnc(C(F)(F)F)n1 | 50 to 250 nM |
| COCCN(CCCCc1ccc2c(n1)NCCC2)CC[C@H](Nc1ncnc2cc(F)c(F)cc12)C(=O)O | < 50 nM |
| O=C(O)[C@H](CCN(CCCCc1ccc2c(n1)NCCC2)CC(F)F)Nc1cc(-n2cccn2)ncn1 | > 1000 nM |
| O=C(O)[C@H](CCN(CCCCc1ccc2c(n1)NCCC2)CC(F)F)Nc1ccncn1 | > 1000 nM |
| O=C(O)[C@H](CCN(CCCCc1ccc2c(n1)NCCC2)CCC(F)F)Nc1ccnc(C2CC2)n1 | 50 to 250 nM |
| O=C(O)[C@H](CCN(CCCCc1ccc2c(n1)NCCC2)CC(F)F)Nc1ncc(C2CC2)cn1 | > 1000 nM |
| O=C(O)[C@H](CCN(CCCCc1ccc2c(n1)NCCC2)CCOc1ccccc1)Nc1cc(-n2cccn2)ncn1 | < 50 nM |
| Cc1ccc(OCCN(CCCCc2ccc3c(n2)NCCC3)CC[C@H](Nc2ncnc3cccnc23)C(=O)O)cn1 | < 50 nM |
